# System: U251 CNS
# test details: NCI-60 one-dose screen, 48 h
# test settings: 10 µM unless noted
Compounds without any hit were thinned out: in the full panel of roughly 83,000, 20% have a hit. Activity calls are given as the source filed them. The calls were made as follows: active = growth percent below 10; inactive = the rest.
The reply should be one of these categories: 1 (yes) (active), 0 (no) (inactive)

[
  {
    "compound structure": "COc1cc(NC(=O)c2cncnc2Nc2ccc3c(ccn3Cc3ccccn3)c2)cc(OC)c1",
    "system under test": "U251 CNS",
    "class label": "0 (no)"
  }
]

Input: In this assay, the call recorded for `COc1cnc2c(c1)C(=O)c1c-2n(CCCCl)c(=O)c2ccncc12` was what?
Output: 0 (no)

Input: Short answer needed: outcome of this test for `COc1ccc(-c2nc3c(N)c(CO)cnc3s2)cc1` ?
Output: 0 (no)

Input: Hi team, can someone confirm the assay call for `COc1cc(OC)c(C(=O)C(CN(C)C)CN(C)C)cc1OC` ?
Output: 0 (no)

Input: Hey, what did the test say about `CC1(C)N=C(N)N=C(N)N1c1ccc(CCCCc2ccccc2)c(Cl)c1` ?
Output: 1 (yes)

Input: GET /call?item= `COc1cccc(/C=N/NC(=O)c2ccccc2N2CCCC2)c1O` returns the recorded outcome of this test.
Output: 0 (no)

====

# Test system: T-47D breast
# test details: NCI-60 one-dose screen, 48 h (100 = growth as untreated, 0 = no growth, -100 = all killed)
# test settings: 10 µM unless noted
Compounds without any hit were thinned out: in the full panel of roughly 83,000, 20% have a hit.
Mark 1.0 for growth under 90%, 0.0 if at or over.

Record excerpt, results attached:
[
  {
    "compound": "C=CCC(CCCC)(C(=O)OCC)C(=O)OCC",
    "system under test": "T-47D breast",
    "class label": 0.0
  },
  {
    "compound": "Oc1c(CN2CCC(N3CCCCC3)CC2)cc(Cc2cc(CN3CCC(N4CCCCC4)CC3)c(O)c3ncccc23)c2cccnc12",
    "system under test": "T-47D breast",
    "class label": 1.0
  },
  {
    "compound": "CN1CCN(C(=S)SCCCCOc2cc(=O)oc3ccccc23)CC1",
    "system under test": "T-47D breast",
    "class label": 1.0
  },
  {
    "compound": "CCN1C(=O)N(CC)C2C1N=C(SCc1ccc(Cl)cc1)N2/N=C/C=C/c1ccccc1OC (stereo unspecified)",
    "system under test": "T-47D breast",
    "class label": 1.0
  }
]

Next:
Input: growth under 90%? Item: `Cc1ccc(-c2csc(NC(=O)c3ccccc3CN3C(=O)c4ccccc4C3=O)n2)cc1`
Output: 0.0

====

# System: SNB-19 CNS
# test details: NCI-60 one-dose screen, 48 h (100 = growth as untreated, 0 = no growth, -100 = all killed)
# test settings: 10 µM unless noted
This is part of a sample that, as a whole, favours compounds with a hit. Of some 83,000 tested, about 20% had one in any assay.
assay readout: growth (%)
Hi! Could you send only the number? It should be in %, unit omitted.

[
  {
    "compound": "O=C(CCSc1nnc2n(Cc3ccccc3)c(=O)c3c4c(sc3n12)CCCC4)N1CCN(c2ccccc2)CC1",
    "system under test": "SNB-19 CNS",
    "growth / %": 99.8
  }
]

Input: Any idea what growth was measured for N#Cc1ccc(O)c(C2=NCC(Cc3ccccc3)O2)c1 (stereo not given) ?
Output: 55.6

Input: Would you mind telling me what growth value was observed for `NC(N)=NS(=O)(=O)c1ccc(NC2=C(I)C(=O)c3ncccc3C2=O)cc1` ?
Output: 98.7

====

# System: PC-3 prostate
# test details: NCI-60 one-dose screen, 48 h
# test settings: 10 µM unless noted
About 83,000 compounds went through this panel and 20% of them were active in at least one assay; those are over-represented in the sample as a whole. Calls of active or inactive are those of the source. How the source made its calls: active means growth percent below 10; inactive means the rest.
A correct response names exactly one class from active, inactive

[
  {
    "compound structure": "CCN1CCN(CCNc2nccc(-c3c(-c4ccc(F)c(OC)c4)nc4sccn34)n2)S1(=O)=O",
    "system under test": "PC-3 prostate",
    "class label": "inactive"
  }
]

Input: // outcome(item) with item = `Cc1ccc(CNc2c3ccccc3nc3ccccc23)cc1`
Output: inactive

Input: I'd appreciate the recorded outcome for `Cc1cc(Nc2ccc(C(=O)N3CCCC3)cc2)nc(NCCCNc2ccnc3cc(Cl)ccc23)n1` from this test.
Output: inactive

Input: Could you check what this test reported for `Fc1ccc(Cn2cc(CSc3nc4ccccc4o3)nn2)cc1` ?
Output: inactive

Input: Could you please tell me the result logged for `COc1ccc(-c2ccc(-c3ccc(C(=N)N)nc3)s2)cc1Cl` in this assay?
Output: active

====

# Test system: SN12C renal
# test details: NCI-60 one-dose screen, 48 h (100 = growth as untreated, 0 = no growth, -100 = all killed)
# test settings: 10 µM unless noted
# Description: Growth inhibition of the SN12C human tumor cell line is measured as a screen for anti-cancer activity. Cells are grown in 96 well plates and exposed to the test compound for 48 hours. Compounds are tested at a single concentration, which is 10^-5 M for most compounds. The reported endpoint is percent growth (GI% or GIPRCNT), where numbers from 0 - 100% represent growth inhibition, and numbers from -100% - 0 represent cell death. For example, a value of 40 represents 60% growth inhibition. […]
This is part of a sample that, as a whole, favours compounds with a hit. Of some 83,000 tested, about 20% had one in any assay. Activity calls are given as the source filed them. Rule for the calls: active = growth percent below 10; inactive = the rest.
assay readout: growth

Would you please look over these solved cases?
[
  {
    "molecule": "C=CCN1C(=O)c2cccc3c(N4CCOCC4)ccc(c23)C1=O",
    "measured result": "17% (inactive)"
  },
  {
    "molecule": "C#CCn1cnc2cnc(Nc3cccc(NC(=O)C=C)c3)nc21",
    "measured result": "90.5% [6.25 µM] (inactive)"
  },
  {
    "molecule": "C[n+]1ccc(CCc2c[nH]c3ccccc23)cc1",
    "measured result": "93.7% (inactive)"
  },
  {
    "molecule": "C#CCNC(=O)[C@]1(C)CCC[C@@]2(C)[C@H]1CC=C1C=C(C(C)C)CC[C@@H]12",
    "measured result": "96.7% (inactive)"
  },
  {
    "molecule": "COc1ccc2c(c1)c(/C(O)=C1\\COC(=O)C1=O)cn2Cc1ccc(F)cc1",
    "measured result": "92.9% (inactive)"
  }
]

Input: Would you mind telling me what growth value was observed for `C=CCC(CCCC)(C(=O)OCC)C(=O)OCC` ?
Output: 110% (inactive)

Input: Please give the measured growth for this molecule: `C=Cc1cnc(Nc2ccc(OC)cc2)nc1NCCCNC(=O)C1CCC1`
Output: 20.6% (inactive)

Input: Looking for the measured growth of CCN1C(=O)N(CC)C2C1NN=c1s/c(=C3\C(=O)N(CC(C)C)c4ccccc43)c(=O)n12 (stereo unspecified) , can you help?
Output: 27.5% (inactive)

Input: Value lookup for growth; key = `CN(CCC(=O)c1ccccc1)CCC(=O)c1ccccc1`
Output: 82.5% (inactive)

Input: Tell me the measured growth of `CCCCCCCCCCCCCOC(=O)c1c(C)[nH]c(/C=C2\N=C(c3ccc[nH]3)C=C2OC)c1C` , please.
Output: 40.7% (inactive)

Input: Fill in: growth of `COc1cc(/C=N/Nc2ccc(Br)cc2)cc(OC)c1OC` is ___
Output: 69.7% (inactive)

====

# System: HT29 colon
# test details: NCI-60 one-dose screen, 48 h
# test settings: 10 µM unless noted
This is part of a sample that, as a whole, favours compounds with a hit. Of some 83,000 tested, about 20% had one in any assay. The source made the active and inactive calls. The calls were made as follows: active = growth percent below 10; inactive = the rest.
The categories you may choose from are 1.0 for active, 0.0 for inactive

[
  {
    "compound": "O=C1/C(=C/c2ccc(F)cc2)CN(C(=O)C(Cl)Cl)C/C1=C\\c1ccc(F)cc1",
    "system under test": "HT29 colon",
    "class label": 1.0
  },
  {
    "compound": "Nc1ccc(-c2csc(-n3[nH]c(=O)ccc3=O)n2)cc1",
    "system under test": "HT29 colon",
    "class label": 0.0
  },
  {
    "compound": "CCc1ccc(CCC(=O)Nc2ncc(Cc3cc(Cl)ccc3Cl)s2)o1",
    "system under test": "HT29 colon",
    "class label": 1.0
  },
  {
    "compound": "Cc1ccc(S(=O)(=O)OCCCOS(=O)(=O)c2ccc(C)cc2)cc1",
    "system under test": "HT29 colon",
    "class label": 0.0
  },
  {
    "compound": "COc1cc(C(=O)n2nc(N3CCOCC3)c3cc(-n4cccc4)ccc32)cc(OC)c1OC",
    "system under test": "HT29 colon",
    "class label": 0.0
  },
  {
    "compound": "CCOC(=O)C1=C(C)/C(=C\\c2[nH]c(C)c(C(=O)OCC)c2C)N=C1C",
    "system under test": "HT29 colon",
    "class label": 0.0
  },
  {
    "compound": "CCN1C2CCC1/C(=C\\c1ccc(F)cc1)C(=O)/C2=C/c1ccc(F)cc1",
    "system under test": "HT29 colon",
    "class label": 0.0
  },
  {
    "compound": "COc1ccc(/C=C2\\CN(C(=O)C(Cl)Cl)C/C(=C\\c3ccc(OC)cc3)C2=O)cc1",
    "system under test": "HT29 colon",
    "class label": 1.0
  },
  {
    "compound": "COc1cc(-c2nc3cc(Cl)c(Cl)cc3[nH]2)ccc1OCC(=O)N=Nc1c(O)[nH]c2ccc(Cl)cc12",
    "system under test": "HT29 colon",
    "class label": 1.0
  },
  {
    "compound": "Cc1ccc(C=C2C(=O)NC(=O)NC2=O)cc1",
    "system under test": "HT29 colon",
    "class label": 0.0
  }
]

Input: Recorded call for `CCCCCCCCCCCCCCCCCCOc1ccccc1CC(=O)NCC[N+]1(C)CCCCC1` ?
Output: 0.0

Input: Field: outcome | Entry: `O=C(CCCCCCN1CC(=O)N2[C@H](c3ccc(Br)cc3)c3[nH]c4ccccc4c3C[C@@H]2C1=O)NO`
Output: 0.0

Input: # fetch the recorded call for `O=C(Nc1ncc(Cc2ccccc2)s1)c1ccc2c(c1)OCCCO2` here
Output: 1.0

Input: What was the test verdict on `CN(Cc1cc(Br)cc(Br)c1O)Cc1cc(Br)cc(Br)c1O` ?
Output: 0.0
